Sourced from patent US20250282827A1

Tested on: A. baumannii ATCC 19606
Format: cell-based, Acinetobacter baumannii
condition notes: median of triplicate
Positions of bridges follow the written chain, without caps; N, C: chain ends. Non-standard residues stand in square brackets, D forms with d. Residues, ends and D or L forms follow the SMILES beside them. *: point of attachment. CH2CH2OBz(4-tBu) = CC(C)(C)c1ccc(C(=O)OCC*)cc1; Ethyl(2-OPiv) = CC(C)(C)C(=O)OCC*; Ethyl(2-OBz) = O=C(OCC*)c1ccccc1; Dab = NCC[C@H](N)C(=O)O
We begin with a simple list: items and their reported MIC A. baumannii ATCC 19606.
Just the number in µg/mL, nothing appended.

Below are worked cases with known answers.
compound	measured on	display unit	MIC A. baumannii ATCC 19606
C[C@@H](O)[C@@H]1NC(=O)[C@H](CCN)NC(=O)[C@H](CCN)NC(=O)[C@H](CSCCOC(=O)C(C)(C)C)NC(=O)[C@@H](Cc2ccccc2)NC(=O)[C@H](CCN)NC(=O)[C@@H](NC(=O)[C@H](CCN)NC(=O)[C@@H](NC(=O)[C@H](CCN)NC(=O)[C@@H](N)CSCCOC(=O)c2ccccc2)[C@@H](C)O)CCNC1=O [Compound 48] (H-C(Ethyl(2-OBz))[Dab]T[Dab][Dab][Dab][dF]C(Ethyl(2-OPiv))[Dab][Dab]T; lactam 5-C)	A. baumannii ATCC 19606	µg/mL	32
C[C@@H](O)[C@@H]1NC(=O)[C@H](CCN)NC(=O)[C@H](CCN)NC(=O)[C@H](CSCCOC(=O)c2ccccc2)NC(=O)[C@@H](Cc2ccccc2)NC(=O)[C@H](CCN)NC(=O)[C@@H](NC(=O)[C@H](CCN)NC(=O)[C@@H](NC(=O)[C@H](CCN)NC(=O)[C@@H](N)CSCCOC(=O)c2ccc(C(C)(C)C)cc2)[C@@H](C)O)CCNC1=O [Compound 41] (H-C(CH2CH2OBz(4-tBu))[Dab]T[Dab][Dab][Dab][dF]C(Ethyl(2-OBz))[Dab][Dab]T; lactam 5-C)	A. baumannii ATCC 19606	µg/mL	2

Lab note: next compound to report on.
Exercise: In one line, give reported MIC A. baumannii ATCC 19606 of the entry C[C@@H](O)[C@@H]1NC(=O)[C@H](CCN)NC(=O)[C@H](CCN)NC(=O)[C@H](CSCCOC(=O)c2ccccc2)NC(=O)[C@@H](Cc2ccccc2)NC(=O)[C@H](CCN)NC(=O)[C@@H](NC(=O)[C@H](CCN)NC(=O)[C@@H](NC(=O)[C@H](CCN)NC(=O)[C@@H](N)CSCCOC(=O)c2ccccc2)[C@@H](C)O)CCNC1=O [Compound 39] (H-C(Ethyl(2-OBz))[Dab]T[Dab][Dab][Dab][dF]C(Ethyl(2-OBz))[Dab][Dab]T; lactam 5-C) .
Solution: 2

* * *

Test system: kidney organoids derived from human induced pluripotent stem cells
run description: Nephrotoxicity on kidney organoids, renal tubule deterioration by bright field imaging; further: key: 1 = unaffected; 2 = mild deterioration; 3 = severe deterioration; 4 = complete deterioration
Format: cell-based
condition notes: 100 μM, scored after 48 h
Procedure: Selected polymyxin analogues were evaluated for cytotoxicity in physiologically relevant human kidney tissue, using kidney organoids derived from human induced pluripotent stem cells (Soo et al. 2018). […] Toxicity was scored after 48 h for signs of renal tubule deterioration visible by bright field imaging (not shown).
Positions of bridges follow the written chain, without caps; N, C: chain ends. Non-standard residues stand in square brackets, D forms with d. Residues, ends and D or L forms follow the SMILES beside them. *: point of attachment. Ethyl(2-propionyloxy) = CCC(=O)OCC*; Ethyl(2-OPiv) = CC(C)(C)C(=O)OCC*; Ethyl(2-OBz) = O=C(OCC*)c1ccccc1; Dab = NCC[C@H](N)C(=O)O
metric name: Score (nephrotoxicity on kidney organoids)
# answer = number (no unit)

Below are worked cases with known answers.
compound	assay result
CC(C)C[C@@H]1NC(=O)[C@@H](Cc2ccccc2)NC(=O)[C@H](CCN)NC(=O)[C@@H](NC(=O)[C@H](CCN)NC(=O)[C@@H](NC(=O)[C@H](CCN)NC(=O)[C@@H](N)CSCCOC(=O)c2ccccc2)[C@@H](C)O)CCNC(=O)[C@H]([C@@H](C)O)NC(=O)[C@H](CCN)NC(=O)[C@H](CCN)NC1=O [Compound 33] (H-C(Ethyl(2-OBz))[Dab]T[Dab][Dab][Dab][dF]L[Dab][Dab]T; lactam 5-C)	1
CCC(=O)OCCSC[C@H](N)C(=O)N[C@@H](CCN)C(=O)N[C@H](C(=O)N[C@@H](CCN)C(=O)N[C@H]1CCNC(=O)[C@H]([C@@H](C)O)NC(=O)[C@H](CCN)NC(=O)[C@H](CCN)NC(=O)[C@H](CSCCOC(=O)c2ccccc2)NC(=O)[C@@H](Cc2ccccc2)NC(=O)[C@H](CCN)NC1=O)[C@@H](C)O [Compound 44] (H-C(Ethyl(2-propionyloxy))[Dab]T[Dab][Dab][Dab][dF]C(Ethyl(2-OBz))[Dab][Dab]T; lactam 5-C)	1

Lab note: next compound to report on.
Exercise: Please report the measured Score (nephrotoxicity on kidney organoids) for C[C@@H](O)[C@@H]1NC(=O)[C@H](CCN)NC(=O)[C@H](CCN)NC(=O)[C@H](CSCCOC(=O)C(C)(C)C)NC(=O)[C@@H](Cc2ccccc2)NC(=O)[C@H](CCN)NC(=O)[C@@H](NC(=O)[C@H](CCN)NC(=O)[C@@H](NC(=O)[C@H](CCN)NC(=O)[C@@H](N)CSCCOC(=O)c2ccccc2)[C@@H](C)O)CCNC1=O [Compound 48] (H-C(Ethyl(2-OBz))[Dab]T[Dab][Dab][Dab][dF]C(Ethyl(2-OPiv))[Dab][Dab]T; lactam 5-C) tested on kidney organoids derived from human induced pluripotent stem cells.
Solution: 1
